B1: EPB41L3 (parent)
chain: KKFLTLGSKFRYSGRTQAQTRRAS

# Variants of: B1
# PROTOCOL_DETAILS: protein stability index of a GFP-peptide fusion (GPS, HEK-293T) (PSI 1-6); higher = more stable;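 further: lentivirally expressed fusions sorted by FACS into six bins by GFP to DsRed ratio, PSI derived from sequencing read proportions per bin multiplied by bin number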
# TEST_CONTEXT: c terminus: a fixed tail appended
Reported protein stability index values follow for various variants
# output: bare number, no unit

VARIANT_LABEL	MEASURED_VALUE
Y12F	2.6
K9F	2.13

Item under review: L6C . Reported protein stability index? 3.17

And then T16S , what is it? 3.36

And then F3V , what is it? 3.07

And then L6A , what is it? 4.31

And then R22I , what is it? 2.02

And then S13P , what is it? 2.55

And then S13A , what is it? 2.63

And then L4K , what is it? 3.33
